test-name: Solubility in PBS (pH 7.4) and simulated colonic fluid, saturated solutions by HPLC-UV
Type: physicochemical
conditions-used: aqueous buffer, thermodynamic from solid; PBS (pH 7.4), saturated solution, ambient temperature; read-out: Solubility in PBS (pH7.4)
attribute-measured: solubility (µg/mL)
Enter your answer as a number in µg/mL; do not include the unit.

**Q:** Using the record for Cn1c(=O)c(C(=O)Nc2ccccc2)c([O-])c2c(Cl)cccc21.[K+] [Example compound 1] , state its measured solubility.
**A:** 0.91
